Biological target: tau protein (Homo sapiens)
Construct: BiFC fluorescent-protein fragments (type and halves not specified)
Sequence (P10636 1-441 isoform P10636-8): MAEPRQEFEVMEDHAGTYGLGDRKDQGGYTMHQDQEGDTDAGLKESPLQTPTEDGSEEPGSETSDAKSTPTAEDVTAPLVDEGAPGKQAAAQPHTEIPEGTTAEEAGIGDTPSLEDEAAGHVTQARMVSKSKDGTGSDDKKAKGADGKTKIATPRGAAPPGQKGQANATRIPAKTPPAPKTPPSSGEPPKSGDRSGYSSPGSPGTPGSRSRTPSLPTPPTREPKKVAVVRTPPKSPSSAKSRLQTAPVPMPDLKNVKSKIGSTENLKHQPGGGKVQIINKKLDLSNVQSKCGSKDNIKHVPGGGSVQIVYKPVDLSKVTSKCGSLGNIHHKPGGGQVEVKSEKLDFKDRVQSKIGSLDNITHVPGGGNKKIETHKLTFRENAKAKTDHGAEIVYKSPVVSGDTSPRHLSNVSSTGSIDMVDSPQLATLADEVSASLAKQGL
Assay: Tau-BiFC cell model, inhibition of Forskolin-induced tau protein aggregation
Settings: tau-BiFC cells, Forskolin 30 μM, 48 hours
Measured endpoint: IC50 (µM)
Give the value in µM but do not write µM after it.

Request: Give reported IC50 value for N#CC(C#N)=NNc1ccc2[nH]c(=O)sc2c1
Response: 0.2

Request: Give me measured IC50, please, for this compound: CCn1c(=O)n(C(C)C)c2ncc(NN=C(C#N)C#N)cc21
Response: 0.11

Request: Name the recorded IC50 of the compound listed here: CCn1c(=O)n(C2CC2)c2ccc(NN=C(C#N)C#N)cc21
Response: 0.02

Request: Name the recorded IC50 of the item CC(C)n1c(=O)sc2cc(NN=C(C#N)C#N)ccc21 in your answer.
Response: 0.04

Request: Check the records and state IC50 for Cc1cc(=O)[nH]c2ccc(NN=C(C#N)C#N)cc12
Response: 0.77

Request: Give IC50 for N#CC(C#N)=NNc1ccc2[nH]c(=O)ccc2c1
Response: 0.43

Request: For the compound CC(C)n1c(=O)n(C)c2cc(NN=C(C#N)C#N)cnc21 , give its measured IC50 value.
Response: 0.3

Request: Supply reported IC50 belonging to this compound: CCn1c(=O)n(C2CC2)c2ncc(NN=C(C#N)C#N)cc21
Response: 0.2

Request: For the compound Cn1c(=O)[nH]c2cc(NN=C(C#N)C#N)ccc21 , give its measured IC50 value.
Response: 1.2

Request: Identify the reported IC50 for the following entry. Cn1c(=O)n(C)c2c(Cl)cc(NN=C(C#N)C#N)cc21
Response: 0.1

Request: Look up and state reported IC50 for CCn1c(=O)n(C)c2cc(NN=C(C#N)C#N)cnc21
Response: 0.06

Request: Provide IC50 value for the following compound: CCn1c(=O)n(C(C)C)c2cc(NN=C(C#N)C#N)cnc21
Response: 0.05

Request: Give recorded IC50. COc1cc(NN=C(C#N)C#N)cc2c1n(C)c(=O)n2C
Response: 0.005

Request: In one line, give reported IC50 of the entry N#CC(C#N)=NNc1ccc2c(c1)sc(=O)n2C(F)F .
Response: 0.1

Request: State its IC50 for this compound: N#CC(C#N)=NNc1cccc2c(=O)[nH]ccc12
Response: 1.8

Request: State, in one line, measured IC50 of Cn1c(=O)n(C2CC2)c2ccc(NN=C(C#N)C#N)cc21
Response: 0.03

Request: Output measured IC50 for this item: CC(C)n1c(=O)oc2cc(NN=C(C#N)C#N)ccc21
Response: 0.1

Request: // Input: N#CC(C#N)=NNc1ccc2cc[nH]c(=O)c2c1 . Output its IC50 only.
Response: 0.13

Request: Return IC50 (reported value) for this compound: Cn1c(=O)ccc2cc(NN=C(C#N)C#N)ccc21
Response: 0.02

Request: Name the recorded IC50 of the compound listed here: CC(C)n1c(=O)n(C)c2ncc(NN=C(C#N)C#N)cc21
Response: 0.2

Request: Consider the compound Cn1c(=O)n(C2CC2)c2ncc(NN=C(C#N)C#N)cc21 . State its measured IC50.
Response: 0.66

Request: Supply measured IC50 of CCn1c(=O)n(C)c2ccc(NN=C(C#N)C#N)cc21 in your reply.
Response: 0.01

Request: Using known records, supply IC50 for CC(C)n1ccc2c(NN=C(C#N)C#N)cccc2c1=O
Response: 0.7

Request: Give the value of IC50 reported for the following: N#CC(C#N)=NNc1ccc2c(c1)oc(=O)n2C(F)F
Response: 0.6

Request: Return value of IC50 for input Cc1cc2c(NN=C(C#N)C#N)cccc2c(=O)n1C , no commentary.
Response: 0.2

These data points were gathered from patent US12590066B2.
